Each recorded value in this set is attributed to PubChem BioAssay AID652067.

Tested on: DAF-12 nuclear receptor (Haemonchus contortus)
assayMethodText: hcDAF-12 driven luciferase reporter activation – cell-based, luminescence, HEK293, lit1-tk-luc reporter, primary screen (AID 652067);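 further: 100% = response to 3 µM Δ7-dafachronic acid high control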
testParameters: HEK293 hcDAF-12 lit1-tk-luc reporter, at 6.8 µM, 0% DMSO, 100% Δ7-dafachronic acid
The campaign covered roughly 370,000 compounds. About 5,400 (1.5%) were called active.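 How the source made its calls: active means activation above the mean of all tested compounds plus 3 SD (cut at about 5.5% in these data); inactive means the rest.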 This excerpt belongs to a sample that is enriched for actives.
Returns: one label drawn from True for active, False for inactive

These recorded examples may help you get a feel for the data.
>>> category("O=C(N1CCOCC1)N1CC[C@H]2[C@H](CCCN2Cc2ccc(F)cc2)C1")
"False"
>>> category("CCOC(=O)C1(Cc2ccccc2)CCN(Cc2cn(C(C)=O)c3ccccc23)CC1")
"False"

Input line: Please let me know the test result on file for Cc1ccccc1NC(=O)N1CCCC1C(=O)NCc1ccccc1 (stereo not given) .
Output line: False

Input line: Please let me know the test result on file for COc1ccc(-n2c(SCC(=O)Nc3ccc4cn[nH]c4c3)nnc2-c2cccnc2)cc1 .
Output line: False

Input line: Please let me know the test result on file for Cc1cc2c(C)nc(N/N=C/c3ccccc3)nc2o1 .
Output line: False

Input line: Please let me know the test result on file for CC(C)Cn1c(CCC(=O)O)ccc1-c1cccs1 .
Output line: False

Input line: Please let me know the test result on file for COC(=O)C1=C(C)N(Cc2ccccc2C(F)(F)F)C(=NCc2ccc(OC)cc2)NC1c1cccc(C(F)(F)F)c1 (stereo not given) .
Output line: False

Input line: Please let me know the test result on file for CC(C)C[C@H](NC(=O)CC1CCCC1)C(=O)N1CCC[C@H]1C(=O)NCc1ccccc1 .
Output line: False

Input line: Please let me know the test result on file for CCN(CC)P(=O)(Nc1ccc(SC(F)F)cc1)c1ccc(N(C)C)cc1NC(=O)c1ccco1 (stereo not given) .
Output line: False

Input line: Please let me know the test result on file for Cc1ccccc1C(=O)N[C@H](C(=O)N1CCC[C@H]1C(=O)NCc1ccccc1)C(C)C .
Output line: True

---

Tested on: DAF-12 nuclear receptor (Haemonchus contortus)
assayMethodText: hcDAF-12 driven luciferase reporter activation – cell-based, luminescence, HEK293, lit1-tk-luc reporter, primary screen (AID 652067);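 further: 100% = response to 3 µM Δ7-dafachronic acid high control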
testParameters: HEK293 hcDAF-12 lit1-tk-luc reporter, at 6.8 µM, 0% DMSO, 100% Δ7-dafachronic acid
The campaign covered roughly 370,000 compounds. About 5,400 (1.5%) were called active.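 The calls were made as follows: active = activation above the mean of all tested compounds plus 3 SD (cut at about 5.5% in these data); inactive = the rest.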 The sample holds actives, similar compounds and a random draw of the others, so the mix is not that of the screen.
Returns: one label drawn from 1.0 (active), 0.0 (inactive)

These recorded examples may help you get a feel for the data.
>>> category("CC1=C(C)CC(C(=O)NC(C)CCc2ccccc2)C(C(=O)O)C1 (configuration not stated)")
0.0
>>> category("O=C(NCCC1=CCCCC1)C1CCN(S(=O)(=O)c2ccc(Cl)s2)CC1")
0.0

Input line: Please let me know the test result on file for COC(=O)Cc1nnn2c1[C@H](C)[C@H](c1ccccc1[N+](=O)[O-])OCC2 .
Output line: 0.0

Input line: Please let me know the test result on file for CCOC(=O)[C@@]12CN(C(=O)OC(C)(C)C)CC=C1N(Cc1ccc(OC)cc1)C(=O)[C@H]2CC(=O)NCc1ccc(OC)c(OC)c1 .
Output line: 0.0

Input line: Please let me know the test result on file for Clc1cccc2c1C1CC2CCN1Cc1ccccc1 (configuration not stated) .
Output line: 0.0

Input line: Please let me know the test result on file for O=S1(=O)c2c(NCc3ccco3)cccc2Oc2ccccc2CN1Cc1cn(Cc2cccc(C(F)(F)F)c2)nn1 .
Output line: 0.0

Input line: Please let me know the test result on file for Cc1ccc(S(=O)(=O)NCCC(=O)Nc2cccc(S(N)(=O)=O)c2)cc1C .
Output line: 0.0

Input line: Please let me know the test result on file for Cc1ccnc(NC(=O)c2ccoc2C)c1 .
Output line: 1.0

Input line: Please let me know the test result on file for Cc1c2cnn(CC(=O)NCCCN3CC(C)CC(C)C3)c(=O)c2c(C)n1Cc1ccc(Cl)cc1 (configuration not stated) .
Output line: 0.0

Input line: Please let me know the test result on file for C/C(=N/NC(=S)Nc1ccccc1)c1ccc2c(c1)OCO2 .
Output line: 1.0

Input line: Please let me know the test result on file for Cc1cccc(NC(=O)c2cccc(C(=O)Nc3cccc(C)c3C)n2)c1C .
Output line: 0.0

Input line: Please let me know the test result on file for Cc1cc(C)n(C(=O)CCNC(=O)c2ccccc2Cl)n1 .
Output line: 0.0

Input line: Please let me know the test result on file for COc1cc(SC)ccc1C(=O)Nc1nc(C)cs1 .
Output line: 0.0
